Target: UniProt P22310
Sequence (P22310 29-534): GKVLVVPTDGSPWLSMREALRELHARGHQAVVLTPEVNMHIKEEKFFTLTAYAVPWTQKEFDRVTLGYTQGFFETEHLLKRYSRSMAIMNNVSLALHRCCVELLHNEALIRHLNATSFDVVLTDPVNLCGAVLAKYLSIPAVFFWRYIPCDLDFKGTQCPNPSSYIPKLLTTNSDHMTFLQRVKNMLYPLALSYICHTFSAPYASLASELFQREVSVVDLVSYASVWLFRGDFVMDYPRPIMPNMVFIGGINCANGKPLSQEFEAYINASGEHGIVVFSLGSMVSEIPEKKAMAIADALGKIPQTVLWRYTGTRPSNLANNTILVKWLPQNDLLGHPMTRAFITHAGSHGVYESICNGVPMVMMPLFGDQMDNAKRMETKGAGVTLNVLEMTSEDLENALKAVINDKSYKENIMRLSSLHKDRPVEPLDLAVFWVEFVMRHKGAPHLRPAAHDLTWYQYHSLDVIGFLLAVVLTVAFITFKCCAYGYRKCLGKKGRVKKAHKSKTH
Assay: UGT1A4-catalyzed trifluoperazine
Conditions: recombinant human UGT1A4, probe trifluoperazine (TFP), 40 μM
Recorded Endpoint: activity at 20 min, 50 μM

INSERT INTO results (smiles_input, recorded_endpoint, observed_result) VALUES
  ('CCCCC/C=C\C/C=C\CCCCCCCC(=O)O[C@H](COC(=O)CCCCCCCCCCCCCCCCC)COP(=O)([O-])OCC[N+](C)(C)C', 'activity at 20 min, 50 μM', '54.3%'),
  ('CCCCCCCC/C=C\CCCCCCCC(=O)OC[C@H](COP(=O)([O-])OCC[N+](C)(C)C)OC(=O)CCCCCCCCCCCCCCC', 'activity at 20 min, 50 μM', '52.6%'),
  ('CCCCCCCC/C=C\CCCCCCCC(=O)OC[C@H](COP(=O)([O-])OCC[N+](C)(C)C)OC(=O)CCCCCCCCCCCCCCCCC', 'activity at 20 min, 50 μM', '60.4%'),
  ('CCCCC/C=C\C/C=C\C/C=C\C/C=C\CCCC(=O)O[C@H](COC(=O)CCCCCCCCCCCCCCCCC)COP(=O)([O-])OCC[N+](C)(C)C', 'activity at 20 min, 50 μM', '52.1%'),
  ('CCCCCCCCCCCCCCCC(=O)OC[C@H](COP(=O)([O-])OCC[N+](C)(C)C)OC(C)=O', 'activity at 20 min, 50 μM', '5.5%');

Would you mind listing activity at 20 min, 50 μM for each of the following compounds?
1. CCCCCCCC/C=C\CCCCCCCC(=O)OC[C@H](COP(=O)([O-])OCC[N+](C)(C)C)OC(=O)CCCCCCCCCCCCC
2. CCCCCCCCCCCCCCCCCC(=O)O[C@H](COC(=O)CCCCCCCCCCCCCCC)COP(=O)([O-])OCC[N+](C)(C)C

1. 49.8%
2. 90%
